Data provenance is patent US20220194999A1.

- System Tested: T1, HLA-A*02:01 class I complex (conditional p*HLA*02:01, biotinylated heavy chain with beta2-microglobulin) (human, biotinylated heavy chain)
- T1 construct: UV-labile peptide p* is cleaved and exchanged for the test peptide; also called HLA 2.1
- Method Notes: UV peptide exchange, HLA class I ELISA, % of Pos peptide;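 note: Streptavidin-captured HLA complexes after exchange detected via HRP anti-human B2M antibody, absorbance read, colour scales with intact complex, normalized to exchange control peptide as 100%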
Parameter: Average %
In your response, the unit should come after the numeric value.

// solved cases for Average % follow
LMVVGACGV (also called M062) [KRAS_G12C3 mimic peptide LMVVGACGV]    48.7%
LLVVGACGV (also called M061) [KRAS_G12C2 mimic peptide LLVVGACGV]    34.8%
CYLYYYSYLL (also called M101) [PTEN R173C2 mimic peptide CYLYYYSYLL]    18.3%
ILNREIDFV (also called M091) [PIK3CA_G118D5 mimic peptide ILNREIDFV]    70.4%
IMNREIDFV (also called M092) [PIK3CA_G118D6 mimic peptide IMNREIDFV]    66.7%

What value of measured Average % is listed for NLDEYVHNI (also called M116) [SF3B1.R625H14 mimic peptide NLDEYVHNI] ?
70.1%

// returns reported Average % for input YMDCGIHSV (also called M023) [CTNNB1_S33C6 mimic peptide YMDCGIHSV]
108%

Quick one: Average % for MLFSKRHWV (also called M012) [CIC_R215W6 mimic peptide MLFSKRHWV] ?
74.3%
